Reference for the values: the supplement of paper PMC8728848

Entries and their glycan array binding signal (z-score) values follow.
Molecular target: Kdn(a2-3)Gal(b1-4)GlcNAc
Assay: glycan array binding signal (z-score within array); higher = stronger binding
Settings: glycan notation: IUPAC condensed, linker removed
The entries come from a sample that favours the strongest signals as a whole.
Output spec: single numeric token, no unit.

GET /values?readout=glycan array binding signal (z-score)&item= Gal 3 (Homo sapiens), P17931 (protein) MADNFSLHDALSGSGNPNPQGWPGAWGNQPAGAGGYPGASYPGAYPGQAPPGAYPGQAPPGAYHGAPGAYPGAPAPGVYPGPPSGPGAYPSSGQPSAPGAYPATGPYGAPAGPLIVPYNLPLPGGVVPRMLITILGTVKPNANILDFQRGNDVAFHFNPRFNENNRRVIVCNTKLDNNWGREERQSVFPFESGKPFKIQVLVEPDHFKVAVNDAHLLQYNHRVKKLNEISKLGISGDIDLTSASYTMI -0.386
